species: Bos taurus; experiment: Displacement of [3H]colchicine from bovine brain tubulin at 1 uM
REPORTED METRIC: Activity (%)
Kindly provide the numeric value in % only, without the unit symbol.

- SMILES STRUCTURE: "COc1ccc2c(NC(C)=O)c(C(=O)c3cc(OC)c(OC)c(OC)c3)oc2c1"
  READING: 51
- SMILES STRUCTURE: "COc1ccc2c(N(C)C)c(C(=O)c3cc(OC)c(OC)c(OC)c3)oc2c1"
  READING: 76
- SMILES STRUCTURE: "COc1ccc2c(N)c(C(=O)c3cc(OC)c(OC)c(OC)c3)sc2c1"
  READING: 60
- SMILES STRUCTURE: "COc1ccc2c(NC(=O)CI)c(C(=O)c3cc(OC)c(OC)c(OC)c3)oc2c1"
  READING: 54
- SMILES STRUCTURE: "COc1ccc2c(NC(=O)CCl)c(C(=O)c3cc(OC)c(OC)c(OC)c3)oc2c1"
  READING: 47

Here is another compound to look at.
-- ask Look up Activity of COc1ccc2c(N)c(C(=O)c3cc(OC)c(OC)c(OC)c3)oc2c1 and report it.
-- reply 73
